# EXPERIMENTAL_TARGET: purified wild type MGL (wt-MGLL 6H-11-313) (Homo sapiens)
# Sequence (Q99685 1-303): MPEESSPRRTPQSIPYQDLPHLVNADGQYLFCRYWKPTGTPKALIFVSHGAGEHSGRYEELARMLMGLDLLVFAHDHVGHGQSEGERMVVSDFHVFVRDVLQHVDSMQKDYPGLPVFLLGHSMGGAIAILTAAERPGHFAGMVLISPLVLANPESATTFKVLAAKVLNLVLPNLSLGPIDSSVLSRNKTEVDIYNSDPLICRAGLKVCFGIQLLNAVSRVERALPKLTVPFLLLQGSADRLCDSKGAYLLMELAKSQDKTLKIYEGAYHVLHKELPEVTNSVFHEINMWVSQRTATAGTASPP
READOUT_TYPE: IC50 (µM)

                                   compound  measured_value
0  O=C(c1cc2cc(-c3ccc(F)cc3)cnc2o1)N1CC(N2CCN(C(=O)c3nccs3)CC2)C1           0.206
1  O=C(c1ccc2[nH]ccc2c1)N1CC(N2CCN(C(=O)c3ccc[nH]3)CC2)C1            8.49

[a] O=C(c1nccs1)N1CCN(C2CN(C(=O)c3ccccc3Nc3cccc(F)c3)C2)CC1
[b] Cc1ccc2sc(C(=O)N3CC(N4CCN(C(=O)c5nccs5)CC4)C3)c(C(F)(F)F)c2c1
[c] O=C(c1nccs1)N1CCN(C2CN(C(=O)c3cccc4oc(-c5ccccc5F)nc34)C2)CC1
[d] O=C(c1ccc2c(ccn2-c2ccc(C(F)(F)F)cc2)c1)N1CC(N2CCN(C(=O)c3ccns3)CC2)C1
[e] Cc1c(C(=O)N2CC(N3CCN(C(=O)c4nccs4)CC3)C2)[nH]c2ccc(-c3ccnn3C)cc12
INPUT: Rank the 5 compounds: largest IC50 first, smallest last. Respond with the label ranking, as requested.
OUTPUT: a, e, c, b, d

---

# EXPERIMENTAL_TARGET: MGL (Rattus norvegicus, UniProt Q8R431)
# Construct: one g rat brain was homogenized using a Polytron homogenizer; from tissue; host or cells: rat brain homogenate
# Sequence (Q8R431 whole entry): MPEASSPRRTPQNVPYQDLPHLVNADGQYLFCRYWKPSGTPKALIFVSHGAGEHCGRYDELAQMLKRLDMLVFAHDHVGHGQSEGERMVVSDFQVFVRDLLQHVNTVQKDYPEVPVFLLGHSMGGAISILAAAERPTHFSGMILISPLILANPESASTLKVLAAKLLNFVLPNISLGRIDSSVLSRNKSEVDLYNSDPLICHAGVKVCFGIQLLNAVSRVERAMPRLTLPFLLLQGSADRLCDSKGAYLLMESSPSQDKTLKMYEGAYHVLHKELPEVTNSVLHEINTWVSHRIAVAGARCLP
# PROCEDURE_SUMMARY: 2-AG accumulation assay in rat brain homogenate
# Assay type: biochemical
# DETAILS: rat brain homogenate; compound 1 μM; 2-AG accumulation as percent of vehicle; read-out: Rat Brain 2AG % VehCntrl (%) @ 1 μM
READOUT_TYPE: 2-AG accumulation, % of vehicle control at 1 µM (%)

Reference set, count: 4
>>> df
                                   compound  measured_value
0  O=C(c1cc(-c2ccccc2)cc(C(F)(F)F)c1)N1CC(N2CCN(C(=O)c3cscn3)CC2)C1 [Cpd 1259]             159
1  O=C(c1cnc2c(ccn2-c2ccc(F)cc2)c1)N1CC(N2CCN(C(=O)c3nccs3)CC2)C1 [Cpd 1056]             498
2  O=C(c1ccc(-c2ccc(Br)cc2)cc1)N1CC(N2CCN(C(=O)c3cscn3)CC2)C1 [Cpd 172]             217
3  O=C(c1ccc(OCc2cccc(Cl)c2)cc1)N1CC(N2CCN(C(=O)c3cscn3)CC2)C1 [Cpd 960]             896

[1] O=C(c1ccc2cc(-c3ccccc3)[nH]c2c1)N1CC(N2CCN(C(=O)c3nccs3)CC2)C1 [Cpd 1333]
[2] O=C(c1cscn1)N1CCN(C2CN(C(=O)c3sc4cc(-c5ccccc5)ccc4c3C(F)(F)F)C2)CC1 [Cpd 1098]
[3] O=C(c1ccc2c(ccn2-c2ccc(C(F)(F)F)nc2)c1)N1CC(N2CCN(C(=O)c3ccc[nH]3)CC2)C1 [Cpd 1062]
[4] O=C(c1cscn1)N1CCN(C2CN(C(=O)c3ccc(-c4ccccc4)cc3Cl)C2)CC1 [Cpd 1221]
INPUT: Order the entries by their reported 2-AG accumulation, % of vehicle control at 1 µM, beginning at the minimum. Respond with the label ranking, as requested.
OUTPUT: 4, 2, 3, 1

FYI, the data here is from patent US8362000B2.
